Entry source: ChEMBL document CHEMBL4765376

Assay: Inhibition of beta lactamase OXA-48 in Klebsiella pneumoniae assessed as decrease in enzyme activity using nitrocefin as chromogenic substrate incubated for 10 mins by […] plate reader analysis
Measurement type: log10(IC50) (log10 of the value in nM)

> print(dat)
                                   molecule  result
1  CC1=C[C@@H]2CN(C(=O)N2O[C@@H](F)C(=O)O)[C@@H]1C(N)=O    1.80
2  CC1=C[C@@H]2CN(C(=O)N2OS(=O)(=O)O)[C@@H]1C(N)=O    1.38
3  CC1=C[C@@H]2CN(C(=O)N2O[C@@H](F)C(=O)O)[C@@H]1C(=O)NOCC1CC1    2.60
4  NC(=O)[C@@H]1C(C2CC2)=C[C@@H]2CN1C(=O)N2OC(F)C(=O)O (single isomer, unassigned)    1.23
5  CC1=C[C@@H]2CN(C(=O)N2O[C@@H](F)C(=O)O)[C@@H]1C(=O)NC1COC1    1.74
6  CC1=C[C@@H]2CN(C(=O)N2O[C@@H](F)C(=O)O)[C@@H]1c1nnc(C(N)=O)o1    1.41
